Data provenance: ChEMBL document CHEMBL3414521

experiment: Cytotoxicity against human Huh7.5 cells after 48 hrs by MTS assay; assay type: cell-based; conditions: huh-7, 48 h
The entries below are paired with their reported CC50.
readout_type: CC50 (µM)

* COC(=O)c1cc(C(=O)O)cc(-c2cc3c(n2Cc2ccccc2)CCCC3)c1 | 45.6
* CC(C(N)=O)n1c(-c2ccccc2)cc2c1CCCC2 (stereo not given) | 156
* Nc1ccc(-c2cc3c(n2Cc2ccccc2)CCCC3)cc1 | 110
* CCn1cc(C(=O)Nc2ccccc2C(N)=O)c(=O)c2cc(OC)ccc21 | 85.6

* * *

test system: Hepatitis C virus; assay: Antiviral activity against HCV genotype 1b infected in HuH7/Rep-Feo1b cells at 50 uM by firefly luciferase reporter gene assay; assay type: functional, Hepacivirus hominis; conditions: Huh-7
Given measured inhibition at 50 µM, output rule met if it is greater than or equal to 50% and rule not met if not.

* Fc1ccc(-n2c(-c3ccccc3)cc3c2CCCC3)cc1 | rule met
* O=C(O)C1CC(=O)N(CCc2c[nH]c3ccccc23)C1 (stereo unspecified) | rule not met
* c1ccc(Cn2c(-c3ccccc3)cc3c2CCCC3)cc1 | rule met
* Cc1nn(Cc2ccccc2)c(C)c1C(=O)O | rule not met
